Reported activation at 0.1 µM is given for each of the following compounds.
Molecular target: glucocerebrosidase (Gcase) (Homo sapiens)
Sequence (P04062 40-536): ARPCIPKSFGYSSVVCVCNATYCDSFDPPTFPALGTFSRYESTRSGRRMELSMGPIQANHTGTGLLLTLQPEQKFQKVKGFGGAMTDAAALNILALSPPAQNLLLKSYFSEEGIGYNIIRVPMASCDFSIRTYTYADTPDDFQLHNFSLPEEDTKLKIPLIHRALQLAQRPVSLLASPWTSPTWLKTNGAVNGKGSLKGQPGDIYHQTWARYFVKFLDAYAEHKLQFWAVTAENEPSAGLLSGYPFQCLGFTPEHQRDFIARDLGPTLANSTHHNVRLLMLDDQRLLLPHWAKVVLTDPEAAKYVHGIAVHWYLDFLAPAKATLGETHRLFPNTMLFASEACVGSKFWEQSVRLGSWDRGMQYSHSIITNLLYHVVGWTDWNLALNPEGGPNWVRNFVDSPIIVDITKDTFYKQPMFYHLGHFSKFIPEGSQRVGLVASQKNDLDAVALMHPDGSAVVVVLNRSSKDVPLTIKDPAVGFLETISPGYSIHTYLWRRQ
Experiment: Glucocerebrosidase (Gcase) activation assay, 4-methylumbelliferyl-beta-D-glucopyranoside substrate, fluorescence
Format: biochemical
Conditions: 0.25 h, pH 4.7, test compound at 0.1 μM, 10 nM GCase, 100 nM saposin C, read-out: Percent Gcase Activation 0.1 μM Test Compound

The cases that follow already have their activation at 0.1 µM on record.
COMPOUND	activation at 0.1 µM
Cc1cc(C)n2c(C)cc(C(=O)N[C@@H](C)C3CC3)c2n1	10 to 20%
Cc1cc(C)n2ccc(C(=O)N[C@@H](C)c3nc4ccccc4n3C)c2n1	< 10%
Cc1cc(C)n2ccc(C(=O)NC(C)c3ccc(F)c(C)c3)c2n1 (centres unmarked)	10 to 20%

# input Please report the measured activation at 0.1 µM for Cc1nc2c(C(=O)N[C@H]3CC[C@H](OC(C)(C)C)CC3)ccn2c2c1CCC2
# output < 10%

# input Please report the measured activation at 0.1 µM for CCC(NC(=O)c1ccn2c(C)cc(C)nc12)c1ncccc1C (centres unmarked)
# output < 10%

# input Please report the measured activation at 0.1 µM for Cc1cc(C)n2ccc(C(=O)NC(C)(c3ccccc3)c3ccccc3)c2n1
# output 10 to 20%

# input Please report the measured activation at 0.1 µM for Cc1cc(Cl)nc2c(C(=O)NC(C)(C)C3CC3)ccn12
# output > 20%

# input Please report the measured activation at 0.1 µM for COCc1cc(C)nc2c(C(=O)N[C@H]3CC[C@H](OCC(C)(C)C)CC3)ccn12
# output > 20%

# input Please report the measured activation at 0.1 µM for Cc1cc(C)n2ccc(C(=O)NC(C)c3ccc4c(c3)CC(C)O4)c2n1 (centres unmarked)
# output > 20%

# input Please report the measured activation at 0.1 µM for CCCO[C@H]1CC[C@H](NC(=O)c2ccn3c(C)cc(-c4cccnc4)nc23)CC1
# output 10 to 20%

# input Please report the measured activation at 0.1 µM for Cc1cc(C)n2ccc(C(=O)NC(C)(C)CC3CC3)c2n1
# output > 20%

====

Assay: Compound solubility in water
Format: physicochemical
RECORDED_ENDPOINT: solubility (µg/mL)

COMPOUND	REPORTED_RESULT
Cc1cc(-c2ccncc2)nc2c(C(=O)NC(C)(C)C3CC3)ccn12 [III-40]	3.5
C[C@H](NC(=O)c1ccn2ccc(-c3ccc(F)cc3)nc12)C1CC1 [III-47]	0.1
Cc1cc(C(F)F)nc2c(C(=O)N[C@H]3CC[C@H](OCC(C)(C)C)CC3)ccn12 [IV-14]	0.8
Cc1cc(C)n2ccc(C(=O)N[C@@H](C)c3ccc(F)cc3)c2n1 [IV-21]	3.3
Cc1cc(C(F)F)n2ccc(C(=O)N[C@H]3CC[C@H](OCC(C)(C)C)CC3)c2n1 [IV-10]	0.3
COc1cccc([C@H](C)NC(=O)c2ccn3c(C)cc(C)nc23)c1 [IV-33]	9.4
Cc1cc(C)n2ccc(C(=O)N[C@@H](C)c3ccccc3F)c2n1 [IV-20]	2.5

I. CCCCO[C@H]1CC[C@H](NC(=O)c2ccn3c(C)cc(N4CCOCC4)nc23)CC1 [IV-15]
II. Cc1cc(C)n2ccc(C(=O)NC(CC3CCC3)c3ccccc3)c2n1 (stereo not drawn) [IV-41]
III. Cc1cc(C)n2ccc(C(=O)NC(C)c3cn(C)c4ccccc34)c2n1 (stereo not drawn) [IV-49]
IV. Cc1cc(C)n2ccc(C(=O)NC(C)(c3ccccc3)c3ccccc3)c2n1 [IV-39]
V. CC(C)(NC(=O)c1ccn2ccc(-c3ccc(F)cc3)nc12)C1CC1 [III-46]
# input Could you please sort these 5 entries by solubility from high to low? Please write the labels in the order that was asked for.
# output I, III, IV, II, V
(I: 8.4 µg/mL, III: 2.1 µg/mL, IV: 0.8 µg/mL, II: 0.5 µg/mL, V: 0.3 µg/mL)
